Below, IC50 values reported for UniProtKB O15379 across several publications.

# return recorded IC50 for entry Nc1ccc(-c2cncs2)cc1NC(=O)c1ccc(N2CCNCC2)cn1
20 to 30 nM

Give the reported value of IC50 for this record: COc1ccc(Cl)cc1CNc1ccc(C(=O)NO)cc1
200 to 400 nM

Return value of IC50 for input Nc1ccc(-c2ccoc2)cc1NC(=O)c1nc(N2CCNCC2)cs1 , no commentary.
> 500 nM

State, in one line, measured IC50 of Cc1ccc(CCCC(=O)Nc2ccc(C(=O)Nc3ccc(C(F)(F)F)cc3N)nc2)cn1
> 20000 nM

Please give measured IC50 of the following entry: CN(c1ccccc1)S(=O)(=O)c1cccc(/C=C/C(=O)NO)c1
13.7 nM

Return value of IC50 for input CN(C)Cc1ccc(/C=C/C(=O)NO)cc1 , no commentary.
9240 nM

Give a short answer stating reported IC50 for CN1CCN(c2cnc(C(=O)Nc3cc(-c4ccco4)ccc3N)s2)CC1 .
10 to 500 nM

Give the value of IC50 reported for the following: CN1CCN(c2ccc3cc(C(=O)Nc4cc(-c5nccn5C)ccc4N)cnc3c2)CC1
> 2000 nM

Identify measured IC50 corresponding to Nc1ccc(-c2cccs2)cc1NC(=O)c1ccc(OC[C@H](O)CO)cn1
140 to 150 nM

Identify the reported IC50 for the following entry. O=C(NO)c1cnc(NC2(c3ccccc3)CCN(C(=S)Nc3ccccc3)CC2)nc1
111 nM

Answer with the recorded IC50 of COc1cc2cc(c1)C(=O)Nc1ccccc1NC(=O)[C@H](CCCCCC(=O)NO)OC/C=C\2 only.
1110 nM

Consider the molecule Cn1cnc2ccc(C(=O)Nc3cc(-c4cccs4)ccc3N)cc21 . State its measured IC50.
985 to 995 nM

Entry CC(C)[C@H](C(=O)N1CCC(Nc2ncc(C(=O)NO)cn2)(c2ccccc2)CC1)c1ccccc1 (stereo in doubt) needs its IC50 filled in; supply it.
1100 nM

# return recorded IC50 for input Nc1nc2ccc(-c3cn(Cc4ccc(-c5nnc(C(F)F)o5)cn4)nn3)cc2s1
> 30000 nM

Identify measured IC50 corresponding to CN1CCN(c2ccc(C(=O)Nc3cc(-c4ccoc4)ccc3N)cn2)CC1
10 to 500 nM

Could you please provide reported IC50 for Nc1ccc(-c2cn(Cc3ccc(-c4nnc(C(F)F)o4)cn3)cn2)cn1 ? Thanks!
> 30000 nM

Quote IC50 reported for Cn1cnc2c(NC3CCCCC3)nc(Nc3ccc(OCCCCCC(=O)NO)cc3)nc21 please.
1180 nM

Indicate its recorded IC50; the molecule in question is Nc1ccc(-c2ccccc2)cc1NC(=O)c1ccc(N2CCNCC2)s1
10 to 500 nM
